- Test system: EKVX NSCLC
- assay-comment: NCI-60 one-dose screen, 48 h
- condition-details: 10 µM unless noted
Compounds without any hit were thinned out: in the full panel of roughly 83,000, 20% have a hit. Calls of active or inactive are those of the source. Rule for the calls: active = growth percent below 10; inactive = the rest.
Field 'call' accepts label 1 (active), label 0 (inactive)

O=C(CC12CC3CC(CC(C3)C1)C2)NCCOCCOCCOCCNC(=O)c1cc2c(o1)C(=O)c1ccccc1C2=O	label 1

What is the recorded call for this compound in the test? NC(=O)c1c(NC(=O)c2ccccn2)sc2c1CCC(=O)C2
label 0

And for Clc1ccc2c(NCCCN3CCN(c4nc(-n5ccnc5)nc5ccccc45)CC3)ccnc2c1 ?
label 0

And for Fc1ccc(Nc2nc(Nc3ccc(-c4nc5ccccc5[nH]4)cc3)c3cn[nH]c3n2)cc1 ?
label 0

And for COc1ccc(Nc2ncc(Br)c(NCCCNC(=O)C3CCC3)n2)cc1 ?
label 0

And for Cc1ccc(S(=O)(=O)N(CC[C@@H]2C[C@H]2c2cc3ccccc3o2)C(=O)NC2CCCCC2)cc1 ?
label 0

====

- Tested on: SW-620 colon
- assay-comment: NCI-60 one-dose screen, 48 h (100 = growth as untreated, 0 = no growth, -100 = all killed)
- condition-details: 10 µM unless noted
This is part of a sample that, as a whole, favours compounds with a hit. Of some 83,000 tested, about 20% had one in any assay.
quantity-kind: growth (%)
Numbers only here, please. The scale is %.

Study these solved cases before continuing.
CN(C)CCC(O)(Cc1ccccc1)c1ccccc1 (stereo not drawn)	114
CN(CCC(=O)/C(=C\c1ccccc1)c1ccc(Cl)cc1)Cc1ccccc1	4.45
O=c1[nH]c(=O)n(C2CC(O)C(CO)O2)cc1CO (stereo not drawn)	96.6
COc1ccc(Nc2ncc(Br)c(NCCCNC(=O)C3CCC3)n2)cc1	29.1
CC(=O)C(C(C)=O)c1nc2sc3cc(Cl)ccc3n2c(=N)c1C#N	95.9
COC(=O)c1ccc2oc(NC(=O)c3ccc(N4CCOCC4)c([N+](=O)[O-])c3)nc2c1	100

Now take the following compound into account.
Which growth is reported for this compound? CCOC(=O)Cc1csc2nc(-c3ccccc3)nn12
98.5

====

- Test system: SF-268 CNS
- assay-comment: NCI-60 one-dose screen, 48 h
- condition-details: 10 µM unless noted
About 83,000 compounds went through this panel and 20% of them were active in at least one assay; those are over-represented in the sample as a whole. Calls of active or inactive are those of the source. How the source made its calls: active means growth percent below 10; inactive means the rest.
Field 'call' accepts 1 for active, -1 for inactive

O=C(/C=C/C12c3ccccc3C(c3ccccc31)C1C(=O)N(c3ccc(Cl)cc3)C(=O)C12)c1ccccn1 (stereo not given)	1

Would you kindly look at the next entry?
What is the recorded call for this molecule in the test? COc1cc(-c2cc(-c3ccc(Nc4nc(Nc5ccccc5)nc(Nc5ccc(Cl)cc5)n4)cc3)nc(N)n2)cc(OC)c1OC
-1

====

- Tested on: NCI/ADR-RES ovarian
- assay-comment: NCI-60 one-dose screen, 48 h (100 = growth as untreated, 0 = no growth, -100 = all killed)
- condition-details: 10 µM unless noted
About 83,000 compounds went through this panel and 20% of them were active in at least one assay; those are over-represented in the sample as a whole.
A collection of molecules and their measured growth
Numbers only here, please. The scale is %.

Study these solved cases before continuing.
N#C/C(=C\c1ccc(Br)cc1)n1nnc2ccccc21	-6.66
Fc1ccc(Nc2ccc3cc(OCCCN4CCOCC4)ccc3n2)cc1F	59.8
CC(C)(C)c1ccc(C(=O)Nc2sc3c(c2C(N)=O)CCC(=O)C3)cc1	-0.603
O=C1CSC(c2ccccc2)N1c1ccccc1 (stereo unspecified)	100
CCOc1cccnc1/C=N/NC(N)=S	48.8

Now take the following molecule into account.
Which growth is reported for this molecule? C[C@@H]1CC[C@@H]2[C@@H]1[C@H](OC(=O)/C=C/c1ccccc1)[C@]1(C3CCCCC3)C[C@@H](NC(=O)CO)[C@@]2(C)O1
95.4
